test: chemical genetic growth profiling, strain panel (AID 1159580);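 further: tested at 20 µM; growth read once vehicle control cultures reached saturation at 30 °C; 1 = growth at the plate median or of vehicle wells; lower values mean less growth of the strain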; details: S. cerevisiae deletion strains, growth OD, locus YOR061W, strain CKA2, stronger effect = lower value
Out of some 5,500 compounds screened, about 2,000 (36%) were called active. Another 18% or so got no clear call; they are omitted. The list shows a part of the results.
observation_type: normalized growth

1. Nc1nc(N)c2nc(CNc3ccc(C(=O)NC(CCC(=O)O)C(=O)O)cc3)cnc2n1 (stereo not drawn) = 0.99
2. CCn1cc(C(=O)O)c(=O)c2cnc(N3CCCC3)nc21 = 1
3. COc1ccccc1NC(=O)Nc1nn(C)c2cccc(OC)c12 = 0.866
4. Cc1onc(-c2ccccc2Cl)c1-c1nc2ccccc2c(=O)o1 = 0.961
5. OC/C=C/c1ccc(O)c(O)c1 = 0.995
6. CC(=O)C1=C(O)C2C3c4c[nH]c5cccc(c45)CC3C(C)(C)N2C1=O (stereo not drawn) = 1
7. CC1=C(/C=C/C(C)=C/C=C/C(C)=C/C(=O)O)C(C)(C)CCC1 = 1.01
8. C/C=C/c1ccc(OC)cc1 = 1.01
9. CC(=O)O[C@H]1CC[C@@]2(C)C(=CCC3C2CC[C@@]2(C)C3CC[C@@H]2C(C)CCCC(C)C)C1 (stereo partly drawn) = 1.01
10. CN=C1CN(O)C(c2ccccc2)=c2cc(Cl)ccc2=N1 = 0.969
11. CN(Cc1cnc2nc(N)nc(N)c2n1)c1ccc(C(=O)NC(CCC(=O)O)C(=O)O)cc1 (stereo not drawn) = 0.99
12. Clc1ccc(-c2noc(CSC3=NCCN3)n2)cc1 = 0.938
13. Nc1nc2ncc(CNc3ccc(C(=O)N[C@@H](CCC(=O)O)C(=O)O)cc3)nc2c(=O)[nH]1 = 0.99
14. CCn1cc(C(=O)O)c(=O)c2cnc(N3CCNCC3)nc21 = 0.988
15. C#C[C@]1(O)CCC2C3CCc4cc(O)ccc4C3CC[C@@]21C (stereo partly drawn) = 1.01
16. CCCNC(C)C(=O)Nc1ccccc1C (stereo not drawn) = 1.02
17. CC(=O)C(Sc1nc2ccccc2s1)C(C)=O = 0.752
18. CC1=C(/C=C/C(C)=C/C=C/C(C)=C/CO)C(C)(C)CCC1 = 0.961
19. O=C(O)CCCCC1SCC2NC(=O)NC21 (stereo not drawn) = 1
20. O=C(O)c1cc(O)c(O)c(O)c1 = 1.04
21. COc1cc(C(=O)O)cc(OC)c1O = 0.964
22. COc1ccc(C[C@H](N)C(=O)N[C@@H]2[C@@H](CO)OC(n3cnc4c(N(C)C)ncnc43)[C@@H]2O)cc1 (stereo partly drawn) = 1.01
23. CCCCCCCC1CCC/C1=N/OC(=O)c1cccs1 (stereo not drawn) = 0.88
24. Nc1ccc(S(=O)(=O)Nc2nccs2)cc1 = 1.01
25. COc1ccc(/C=C/c2cc(O)cc(O)c2)cc1 = 0.941
26. CSc1cccc(N2C(=O)CC(c3c(Cl)cccc3Cl)CC2=O)c1 = 0.994
27. CC1=CC(=O)CC(C)(C)C1(O)/C=C/C(C)=C\C(=O)O (stereo not drawn) = 0.951
28. COc1cc(/C=C/C(=O)O)cc(OC)c1OC = 1.02
29. CCCSP(=O)(OCC)SCCC = 1.01
30. CN(C)/C=C/C(=O)c1ccc(C#Cc2ccccc2)cc1 = 0.979
31. CCc1cc2c(cc1-c1csc(C/C(N)=N\O)n1)C(C)(C)CCC2(C)C = 0.788
32. O=C1/C(=C/c2c(F)cccc2Cl)Cc2ccccc21 = 0.942
33. CC(=O)O[C@H]1CC[C@@]2(C)C(=CCC3C2CC[C@]2(C)C(=O)CCC32)C1 (stereo partly drawn) = 0.89
34. CC12CCC3C(CC=C4CC(O)CCC43C)C1CCC2=O (stereo not drawn) = 0.907
35. CCOP(=S)(OCC)SCCSCC = 0.96
36. CCC(CCC(C)C1CCC2C3CC=C4C[C@@H](OC(C)=O)CC[C@]4(C)C3CC[C@]12C)C(C)C (stereo partly drawn) = 1.01
37. OC(c1ccc(C(F)(F)F)cc1)c1cccc(C(F)(F)F)c1 (stereo not drawn) = 1
38. CC(=O)N[C@@H]1[C@@H](C(O)[C@H](O)CO)O[C@](O)(C(=O)O)C[C@@H]1O (stereo partly drawn) = 1.01
